Biological target: Tyk2 (Homo sapiens)
Sequence (P29597 whole entry): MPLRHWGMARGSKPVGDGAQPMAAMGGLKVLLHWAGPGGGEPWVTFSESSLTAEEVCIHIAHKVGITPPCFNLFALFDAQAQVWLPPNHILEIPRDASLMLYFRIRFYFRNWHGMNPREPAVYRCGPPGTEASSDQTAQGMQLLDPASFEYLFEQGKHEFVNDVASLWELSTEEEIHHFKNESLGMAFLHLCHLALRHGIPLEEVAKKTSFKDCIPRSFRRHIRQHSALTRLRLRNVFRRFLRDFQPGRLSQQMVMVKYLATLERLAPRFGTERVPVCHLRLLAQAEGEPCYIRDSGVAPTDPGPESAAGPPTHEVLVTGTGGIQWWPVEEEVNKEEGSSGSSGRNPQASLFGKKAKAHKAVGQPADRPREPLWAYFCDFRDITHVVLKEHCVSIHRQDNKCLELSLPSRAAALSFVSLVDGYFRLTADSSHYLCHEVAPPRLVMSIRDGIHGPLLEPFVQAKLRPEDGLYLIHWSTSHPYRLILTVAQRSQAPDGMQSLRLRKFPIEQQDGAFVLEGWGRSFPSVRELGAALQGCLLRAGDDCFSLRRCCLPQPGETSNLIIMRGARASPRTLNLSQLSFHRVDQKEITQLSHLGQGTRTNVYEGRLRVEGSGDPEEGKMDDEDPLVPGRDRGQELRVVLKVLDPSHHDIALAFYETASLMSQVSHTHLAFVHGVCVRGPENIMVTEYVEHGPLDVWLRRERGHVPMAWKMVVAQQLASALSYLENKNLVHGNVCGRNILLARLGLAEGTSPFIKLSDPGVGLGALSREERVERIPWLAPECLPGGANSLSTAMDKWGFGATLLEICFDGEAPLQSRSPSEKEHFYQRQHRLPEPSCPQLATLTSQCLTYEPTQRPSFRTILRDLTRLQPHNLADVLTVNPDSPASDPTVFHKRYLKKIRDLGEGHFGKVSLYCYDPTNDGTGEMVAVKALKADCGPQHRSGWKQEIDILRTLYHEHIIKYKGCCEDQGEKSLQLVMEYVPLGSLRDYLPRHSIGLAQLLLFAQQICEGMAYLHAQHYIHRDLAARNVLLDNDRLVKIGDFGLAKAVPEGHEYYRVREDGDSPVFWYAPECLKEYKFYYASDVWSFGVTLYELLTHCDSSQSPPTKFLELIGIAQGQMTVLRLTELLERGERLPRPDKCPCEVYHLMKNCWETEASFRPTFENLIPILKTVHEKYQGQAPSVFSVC
Test: Inhibition of JAK kinase activity, EZ Reader microfluidic phosphorylation of peptide substrate: Tyk2
Format: biochemical
Conditions: Tyk2 kinase 1 nM; highest final concentration 10 μM, 1:3 serial dilution, 8 points, duplicates
IC50: recorded values
measured.metric: IC50

> print(dat)
                                    molecule       result
 1  CCCS(=O)(=O)N1CC(n2cc(-c3ccnc(Nc4cnn(C)c4)c3)cn2)C1      ≥ 10 µM
 2  CCCS(=O)(=O)N1CC(CC#N)(n2ccc(-c3ccnc(Nc4cnn(C)c4)n3)n2)C1   1 to 10 µM
 3  Cn1cc(Nc2nccc(-c3cnn(C4CCN(C(=O)C5CC5(F)F)C4)c3)n2)cn1 (stereo not drawn)   1 to 10 µM
 4  Cn1cc(Nc2nccc(-c3ccn(C4(CC#N)CN(C(=O)C5CC5(F)F)C4)c3)n2)cn1 (stereo not drawn)     < 0.1 µM
 5  Cn1cc(Nc2nccc(-c3ccn(C4(CC#N)CN(C(=O)CC(F)(F)F)C4)c3)n2)cn1     < 0.1 µM
 6  CN1CCN(c2ccc(-c3ccnc(Nc4cnn(C)c4)n3)cc2)CC1   1 to 10 µM
 7  Cn1cc(Nc2nccc(-c3ccn(C4(CC#N)CN(S(=O)(=O)C5CCOCC5)C4)c3)n2)cn1  0.1 to 1 µM
 8  Cn1cc(Nc2nccc(-c3ccn(C4(CC#N)CN(C(=O)CO)C4)c3)n2)cn1   1 to 10 µM
 9  Cn1cc(Nc2nccc(-c3cnn(C4CCN(C(=O)C5CC5)CC4)c3)n2)cn1      ≥ 10 µM
10  Cn1cc(Nc2cc(-c3cnn(C4CN(C(=O)C5CC5)C4)c3)ccn2)cn1      ≥ 10 µM
11  Cn1cc(Nc2nccc(-c3cnn(C4(CC#N)CN(C(=O)C5CC5)C4)c3)n2)cn1  0.1 to 1 µM
12  Cn1cc(Nc2nccc(-c3ccc(C4(CC#N)CN(C(=O)CC(F)(F)F)C4)cc3)n2)cn1  0.1 to 1 µM
13  CCC(=O)N1CC(n2cc(-c3ccnc(Nc4cnn(C)c4)n3)cn2)C1      ≥ 10 µM
14  Cn1cc(Nc2nccc(-c3cnn(C4(CC#N)CN(S(=O)(=O)Cc5ccccc5)C4)c3)n2)cn1  0.1 to 1 µM
15  Cn1cc(Nc2nccc(-c3cnn(C4CCN(C(=O)CC#N)CC4)c3)n2)cn1      ≥ 10 µM
16  Cn1cc(Nc2nccc(-c3cnn(C4CN(C(=O)C5CC5(F)F)C4)c3)n2)cn1 (stereo not drawn)      ≥ 10 µM
17  CCCC(=O)N1CCC(n2cc(-c3ccnc(Nc4cnn(C)c4)n3)cn2)C1 (stereo not drawn)      ≥ 10 µM
18  CCC(=O)N1CCC(n2cc(-c3ccnc(Nc4cnn(C)c4)n3)cn2)CC1      ≥ 10 µM
19  Cn1cc(Nc2nccc(-c3ccn(C4(CC#N)CN(S(=O)(=O)CCCF)C4)c3)n2)cn1  0.1 to 1 µM
20  Cn1cc(Nc2nccc(-c3ccn(C4(CC#N)CN(S(=O)(=O)C5CCOCC5)C4)n3)n2)cn1   1 to 10 µM
21  CCS(=O)(=O)N1CC(CC#N)(n2ccc(-c3ccnc(Nc4cnn(C)c4)n3)n2)C1  0.1 to 1 µM
22  Cn1cc(Nc2nccc(-c3ccc(C4(CC#N)CN(C(=O)CC#N)C4)cc3)n2)cn1  0.1 to 1 µM
23  Cn1cc(Nc2cc(-c3cnn(C4CN(C(=O)CO)C4)c3)ccn2)cn1      ≥ 10 µM
24  Cn1cc(Nc2nccc(-c3cnn(C4CCN(C(=O)CC#N)C4)c3)n2)cn1 (stereo not drawn)   1 to 10 µM
25  CCCC(=O)N1CC(n2cc(-c3ccnc(Nc4cnn(C)c4)c3)cn2)C1      ≥ 10 µM
26  Cn1cc(Nc2nccc(-c3cnn(C4CN(C(=O)CC(F)(F)F)C4)c3)n2)cn1      ≥ 10 µM
27  Cn1cc(Nc2nccc(-c3ccn(C4(CC#N)CN(S(=O)(=O)CC(F)(F)F)C4)c3)n2)cn1     < 0.1 µM
28  Cn1cc(Nc2nccc(-c3cnn(C4(CC#N)CN(S(=O)(=O)C5CCOCC5)C4)c3)n2)cn1  0.1 to 1 µM
29  Cn1cc(Nc2nccc(-c3cnn(C4(CC#N)CN(S(=O)(=O)CC5CC5)C4)c3)n2)cn1  0.1 to 1 µM
30  Cn1cc(Nc2nccc(-c3ccn(C4(CC#N)CN(C(=O)[C@@H]5CC5(F)F)C4)c3)n2)cn1     < 0.1 µM
31  Cn1cc(Nc2nccc(-c3cnn(C4(CC#N)CN(C(=O)C5CC5(F)F)C4)c3)n2)cn1 (stereo not drawn)  0.1 to 1 µM
32  Cn1cc(Nc2nccc(-c3cnn(C4(CC#N)CN(S(=O)(=O)CCCCl)C4)c3)n2)cn1  0.1 to 1 µM
33  COC(=O)CCS(=O)(=O)N1CC(CC#N)(n2cc(-c3ccnc(Nc4cnn(C)c4)n3)cn2)C1  0.1 to 1 µM
